The measured values listed here are drawn from patent US8859620B2.

systemTested: surface domain of B1aR (Staphylococcus aureus, UniProt P18357)
Sequence (P18357 331-585): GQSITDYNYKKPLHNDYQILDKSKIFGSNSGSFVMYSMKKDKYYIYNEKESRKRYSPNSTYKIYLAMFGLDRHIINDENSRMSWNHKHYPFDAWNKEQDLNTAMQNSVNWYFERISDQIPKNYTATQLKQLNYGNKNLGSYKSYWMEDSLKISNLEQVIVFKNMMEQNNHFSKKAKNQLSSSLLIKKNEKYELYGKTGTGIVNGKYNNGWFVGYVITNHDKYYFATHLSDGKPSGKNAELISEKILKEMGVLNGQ
assayProtocol: B1aR assay (BOCILLIN FL labeling, SDS-PAGE)
Type: binding, Staphylococcus aureus (MRSA)
studyConditions: Table 10; class symbols x/xx/xxx, key not given
Protocol: β-Lactamase Assays (TEM-1, P99, and OXA-10): The activity of the compounds of the invention (inhibitors) toward β-lactamases was evaluated using 96 well plates. […] The inhibition of the enzyme activity by the compounds was determined by monitoring color change (from yellow to red) of nitrocefin after 20 minutes. […] The fluorescent bands of BOCILLIN FL-labeled B1aR^S were analyzed by Image Quant 5.2 software. […]
measuredProperty: BlaR

In [3]: df
Out[3]:
                                smilesrecord  recordedvalue
 0   CCCCCCCCOc1ccc(NC(=O)c2ccccc2C(=O)O)cc1             xx
 1  Cc1ccccc1COc1ccc(NC(=O)c2c(Br)c(Br)c(Br)c(Br)c2C(=O)O)cc1Cl            xxx
 2  CCCCCCCCCCCCCCCCOc1ccc(NC(=O)c2c(Br)c(Br)c(Br)c(Br)c2C(=O)O)cc1             xx
 3  CCCCCCCCCCCCCCCCOc1ccc(NC(=O)c2c(F)c(F)c(F)c(F)c2C(=O)O)cc1            xxx
 4  CCCCCCCCCCOc1ccc(N(C)C(=O)c2ccccc2C(=O)O)cc1            xxx
 5  CCCCCCCCOc1ccc(NC(=O)c2c(Br)c(Br)c(Br)c(Br)c2C(=O)O)cc1Cl             xx
 6  O=C(O)c1c(Cl)c(Cl)c(Cl)c(Cl)c1C(=O)Nc1ccc(OCc2cccc(OC(F)(F)F)c2)c(Cl)c1            xxx
 7  O=C(O)c1ccccc1C(=O)Nc1ccc(OCc2cccc(C(F)(F)F)c2)c(Cl)c1             xx
 8  O=C(O)c1c(F)c(F)c(F)c(F)c1C(=O)Nc1ccc(Oc2cc(C(F)(F)F)cc(C(F)(F)F)c2)cc1             xx
 9  CCCCCCCCOc1ccc(NC(=O)c2c(F)c(F)c(F)c(F)c2C(=O)O)cc1Cl            xxx
10  O=C(O)c1c(Cl)c(Cl)c(Cl)c(Cl)c1C(=O)Nc1ccc(OCc2ccccc2)c(Cl)c1             xx
